These measurements were taken from patent US20260176260A1.

# TARGET OR SYSTEM: B-Raf kinase (Homo sapiens)
# Construct: purchased Sigma
# Sequence (P15056 416-766): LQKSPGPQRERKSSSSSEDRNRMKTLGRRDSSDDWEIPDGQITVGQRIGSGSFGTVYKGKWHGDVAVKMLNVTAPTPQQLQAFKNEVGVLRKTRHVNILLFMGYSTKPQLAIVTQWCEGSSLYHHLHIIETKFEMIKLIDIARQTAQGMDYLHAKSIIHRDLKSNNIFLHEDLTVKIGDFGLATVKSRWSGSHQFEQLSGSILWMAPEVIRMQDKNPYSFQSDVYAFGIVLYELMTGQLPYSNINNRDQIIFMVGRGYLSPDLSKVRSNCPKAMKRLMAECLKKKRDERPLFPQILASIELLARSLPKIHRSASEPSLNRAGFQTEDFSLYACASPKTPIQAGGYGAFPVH
# ASSAY OVERVIEW: Biochemical assay for B-Raf (coupled pyruvate kinase/lactate dehydrogenase)
# RUN CONDITIONS: Table 1, inhibition of biochemical activity; read-out: BRAF
// values below are reported IC50

Use these answered entries as a reference point.
{"columns": ["CHEMICAL STRING", "IC50"],
 "data": [
  ["CNC(=O)c1cc(-c2cc(-c3cc(NC(=O)c4cncc(C(C)(F)F)c4)ccc3C)ccn2)ccn1", "< 100 nM"],
  ["CNC(=O)c1cc(-c2cc(-c3cc(NC(=O)c4cc(C5CC5)cnn4)ccc3C)cc(N[C@H](C)CO)n2)ccn1", "< 100 nM"],
  ["CNC(=O)c1cc(-c2cncc(-c3cc(NC(=O)c4cc(C#N)cnn4)ccc3C)c2)ccn1", "100 to 500 nM"],
  ["CNC(=O)c1cc(-c2cc(-c3cc(NC(=O)c4cc(C(F)(F)F)cnn4)ccc3C)cc(NC)n2)ccn1", "< 100 nM"]
]}

**Q:** Determine its reported IC50: "CNC(=O)c1cc(-c2cc(-c3cc(NC(=O)c4cc(C(C)(F)F)cnn4)ccc3C)ccn2)ccn1"
**A:** < 100 nM

**Q:** For the compound "CNC(=O)c1cc(-c2cc(N[C@H](C)CO)nc(-c3cc(NC(=O)c4cc(C(F)(F)F)cnn4)ccc3C)n2)ccn1" , give its measured IC50 value.
**A:** 100 to 500 nM

**Q:** Supply IC50 value. Item: "CNC(=O)c1cc(-c2cc(-c3cc(NC(=O)c4cc(C(F)(F)F)cnn4)ccc3C)nc(NCCO)n2)ccn1"
**A:** < 100 nM

---

# System: MiaPaca-2 cells
# ASSAY OVERVIEW: MiaPaca-2 cell proliferation assay (resazurin)
# Format: cell-based
# RUN CONDITIONS: Homo sapiens, MIA PaCa-2; Table 2, inhibition of cell proliferation; read-out: MiaPaca-2
Entries and their measured IC50 follow.

{"columns": ["CHEMICAL STRING", "IC50"],
 "data": [
  ["CNC(=O)c1cc(-c2cc(-c3cc(NC(=O)c4cc(C#N)cnn4)ccc3C)cc(OCCO)n2)ccn1", "500 to 1000 nM"],
  ["CNC(=O)c1cc(-c2cc(-c3cc(NC(=O)c4cnc(C(F)(F)F)nc4)ccc3C)cc(N[C@H](C)CO)n2)ccn1", "1000 to 10000 nM"],
  ["Cc1cc(-c2cc(NC(=O)c3cc(C(F)(F)F)cnn3)ccc2C)cc(-c2ccnc(C(N)=O)c2)n1", "100 to 500 nM"],
  ["CNC(=O)c1cc(-c2cc(-c3cc(NC(=O)c4cc(C(F)(F)F)cnn4)ccc3C)ccn2)ccn1", "100 to 500 nM"]
]}

**Q:** Enter measured IC50, system MiaPaca-2 cells, for the compound shown: "CNC(=O)c1cc(-c2cc(-c3cc(NC(=O)c4cc(Cl)cnn4)ccc3C)ccn2)ccn1"
**A:** 500 to 1000 nM

**Q:** Return reported IC50 for target or system MiaPaca-2 cells, item "CNC(=O)c1cc(-c2cc(NCCO)nc(-c3cc(NC(=O)c4cc(C(F)(F)F)cnn4)ccc3C)n2)ccn1" .
**A:** 1000 to 10000 nM

**Q:** Answer with IC50 of "CNC(=O)c1cc(-c2cc(-c3cc(NC(=O)c4cc(C5CC5)cnn4)ccc3C)cc(OCCO)n2)ccn1" measured for MiaPaca-2 cells.
**A:** 500 to 1000 nM

**Q:** Enter IC50 (test system MiaPaca-2 cells) for "CNC(=O)c1cc(-c2cc(-c3cc(NC(=O)c4cncc(C(F)(F)F)c4)ccc3C)cc(C)n2)ccn1"
**A:** 1000 to 10000 nM

**Q:** Give reported IC50 for "CNC(=O)c1cc(-c2cc(-c3cc(NC(=O)c4cc(C#N)cnn4)ccc3C)cc(N[C@H](C)CO)n2)ccn1" (MiaPaca-2 cells)
**A:** 100 to 500 nM

**Q:** For MiaPaca-2 cells, give IC50 of the listed compound: "CNC(=O)c1cc(-c2cc(-c3cc(NC(=O)c4cc(C(F)(F)F)cnn4)ccc3C)cc(OCCO)n2)ccn1"
**A:** 100 to 500 nM

**Q:** Report the value of IC50 obtained on MiaPaca-2 cells for "CNC(=O)c1cc(-c2cc(-c3cc(NC(=O)c4cncc(C(C)(F)F)c4)ccc3C)cc(C)n2)ccn1" .
**A:** 1000 to 10000 nM

**Q:** // fetch IC50; item: "CNC(=O)c1cc(-c2cncc(-c3cc(NC(=O)c4cc(C5CC5)cnn4)ccc3C)c2)ncn1" ; system: MiaPaca-2 cells
**A:** 1000 to 10000 nM

**Q:** Provide MiaPaca-2 cells IC50 reading for "CNC(=O)c1cc(-c2cc(-c3cc(NC(=O)c4cc(C(F)(F)F)cnn4)ccc3C)cc(N[C@H](C)CO)n2)ccn1" .
**A:** 100 to 500 nM

**Q:** Provide IC50, system MiaPaca-2 cells, entry "CCc1ccc(NC(=O)c2cc(C(F)(F)F)cnn2)cc1-c1ccnc(-c2ccnc(C(=O)NC)c2)c1"
**A:** 1000 to 10000 nM

**Q:** Write down measured IC50 (MiaPaca-2 cells) for this compound. "CNC(=O)c1cc(-c2cc(-c3cc(NC(=O)c4cc(C#N)cnn4)ccc3C)cc(NCCO)n2)ccn1"
**A:** 100 to 500 nM

**Q:** Write down measured IC50 (MiaPaca-2 cells) for this compound. "CNC(=O)c1cc(-c2cc(-c3cc(NC(=O)c4ccc(C(F)(F)F)nc4)ccc3C)cc(N[C@H](C)CO)n2)ccn1"
**A:** 1000 to 10000 nM
